The reported measurements were obtained from a melting point compilation (Tetko et al.; mined from patent text by program, amines drawn as free bases though some values may be those of a salt).

metricName: melting point

compound	melting point
CC(C)(C)NS(=O)(=O)c1sc([Si](C)(C)C)cc1C(F)=C(F)C(F)(F)F	92 to 94 °C
CN1CCN(c2cc(NC(=O)OC(C)(C)C)c([N+](=O)[O-])cc2C#Cc2ccccc2)CC1	170 °C
CC(NC(=O)CCc1ccc(C(C)(C)C)cc1)c1ccc(NS(C)(=O)=O)c(F)c1 (centres undefined)	152 to 154 °C

Answer for every listed entry: what is its melting point? The entries follow.
1. CCN1c2ccc(Cl)cc2C=C(C(=O)O)C1C(F)(F)F (centres undefined)
2. NC(=O)N(O)Cc1ccc(CCCCCC(F)(F)F)s1
3. O=C(O)c1cc(C(=O)O)cc(S(=O)(=O)Nc2ccc(F)c(C(F)(F)F)c2)c1
4. CC(NC(=O)C1CC(=O)c2cc(F)ccc2O1)c1ccccc1 (single isomer, unassigned; (+))
5. CCOC(=O)CCc1cc(-c2ccccc2)nn1Cc1ccc(Cl)cc1Cl
6. O=C1CN(c2ccccc2)C(=O)N1C(=O)c1ccccc1Cl

## Result
["201 to 202 °C", "94 °C", "286 to 288 °C", "140 °C", "91 to 93 °C", "184 to 185 °C"]

Answer for every listed entry: what is its melting point? The entries follow.
1. N=C(Nc1ccc(F)cc1)Nc1ncccc1OCc1c(F)cccc1Cl
2. Cc1oc(-c2ccccc2)nc1COc1ccc2c(c1)CCC(C=C1SC(=O)NC1=O)=C2

## Result
152 to 154 °C
271 to 272 °C

Answer for every listed entry: what is its melting point? The entries follow.
1. COc1ccc(C)cc1NC(=O)Nc1ccc(N2CCN(C(=O)C3CCCCC3)CC2)cc1
2. CCCc1c(OCCCSc2ccc(C(C)=O)c(OCCCC(=O)OCC)c2CCC)ccc(C(C)=O)c1O
3. Cc1cc2c(cc1-c1cc(-c3ccc(C(=O)O)cc3)ccc1-c1ccccc1)C(C)(C)CCC2(C)C
4. COc1cc(C(=O)NS(=O)(=O)c2ccccc2C)ccc1Cc1cn(C)c2ccc(CCNC(=O)N3CCOCC3)cc12
5. COc1ccc(-c2csnn2)cc1C=O
6. OC1(c2ccc(F)cc2)CCC2CN(Cc3ccccc3)CCC2C1 (centres undefined)
7. CC(C)c1nc(C2CCCCC2)cc(-c2ccc(F)cc2)c1C=O
8. COc1cc(C=CC#N)cc(OC)c1OC

## Result
1. 222 °C
2. 87 to 88 °C
3. 217 °C
4. 125 to 133 °C
5. 156 to 157 °C
6. 120 to 122 °C
7. 59 to 61 °C
8. 92.1 °C
